# Test system: gene editing with Cas9
# assay_summary: Screen of 322 new SSAP proteins, gene editing activity with Cas9 (Table 5)
# Assay type: cell-based
# run_conditions: normalized
We begin with a simple list: items and their reported Cas9 with SSAP activity (normalized).

| molecule | Cas9 with SSAP activity (normalized) |
| --- | --- |
| SSAP_303: SEQ ID NO: 472; Paenibacillus sp. BK033 (protein, listed as Paenibacillus sp.) AANTQLITIHNNLEKLIEAKKDAMPQGFNKTRFIQNCMTVLQDTYGIEKCEPTTVARTLLKGAFLGLDFFNKECYAIPYGASMNFQTDYKGERKLAKKYSVRKVKDIYAKLVRAGDVFEENITDGQQTIQFAPVPFNNGDIVGAFAVVLFHDGGMLYETMSIAEMEHIKENYSKKSKDTGKFSKAWEVSTGEMYKKTVLRRLCKNIELDFDTIEQARAFEDAADVDFNKKTAPQQTSPLNVVEAEYEVVNDGSATEAQSE | 2.052 |
| SSAP_316: SEQ ID NO: 485; Companilactobacillus kedongensis (protein, listed as Companilactobacillus kedongensis) MKDLARIPVKELVRSDTIKSKFNDVLGKRAPQFISSIVNIVNSNQDLKNVDQTSVISSALVAASLDLPINQSFGYMYLVPYSGKAQPQMGYKGYIQLAQRSGQYKRLNAISVSKEKVPDKMVIFIPDYRMEEAETQIDMYQDHIEDVKAGRVEPTRCGKCDYCKSTAKLGKIVSMDDLID | 0.410 |
| SSAP_116: SEQ ID NO: 285; Lachnoclostridium sp. An14 (protein, listed as Lachnoclostridium sp.) TDVKQELERKVGKQDSTAVRLTKNMSIPDMIKALEPEIRRALPAVLTPERFLRMALSAVNNTPKLAECTPMSFIAAMMNAAQLGLEPNTPLGQAYLIPYKNKNQLECQFQIGYKGIIDLAYRTGQMQMIQAHAVHEFDDFEYEYGLNPKLIHRPGDGNRGEITYFYGLFKLVNGGFGFEVMNREAMEAFAQQYSQSYGSQYSPWVKNFEDMAKKTVIKKALKYGPVKAEFQKAISMDETIKTEIAVDMTEVQNEESE | −0.056 |
| SSAP_320: SEQ ID NO: 489; Pseudoalteromonas sp. MQS005 (protein, listed as Pseudoalteromonas sp.) SISQQDYENLLYSKLYECESQYQAYLAEHNEKLNFNAELNYMYKAVMSGVGIEGGFPYTPLESIVESFLKAAKLGLSLDPSEQFCFLRSQYDHSTGLYHTELGLGYKGVLHLAYRSGKVKQIVSNVFYNKDNFQFNGPNSKVTHTMTVLSTSARGNLAGGYCQTELVDGSFIVTVMPPEEILAIEEQGKSVGNPAWLSAHVNQMREKTLILRHWKTLYPAIYSSSLLDSAQIFDDECEEFPFSSPSQGFSESQTIGSY | −0.932 |
